Attribute: z-score
procedure_details: DUSP6 inhibitors restoring Erk phosphorylation by chemical complementation, primary imaging in DUSP6-transfected HeLa (AID 609)
measurement_context: HeLa MKP-3 transfected, phospho-Erk imaging KS statistic; measured here: nuclear c-Myc green intensity z-score; at 10 µM; cells stimulated with TPA for 15 min
I only need the number, thanks.

Cc1ccccc1NC(=O)NCCc1nc2ccccc2[nH]1	-0.333
CCOc1nnnc2c1sc1nc(N3CCOCC3)c3c(c12)CC(C)(C)OC3	-0.399
COc1ccc(C(=O)Cn2c(N3CCCCC3)nc3c2c(=O)n(C)c(=O)n3C)cc1OC	0.344
O=C(CCNNC(=O)c1ccncc1)NCc1ccccc1	-0.737

Req: Form field: reported z-score of CN1CCC(=C2c3ccccc3C=Cc3ccccc32)CC1
Resp: 1.45

Req: Form field: reported z-score of CN(C=C1C(=O)CC(C)(C)CC1=O)CCN1CCNCC1
Resp: -0.802

Req: Form field: reported z-score of Cc1c(C2Nc3ccccc3NC3=C2C(=O)CC(C)(C)C3)cnn1C (stereo unspecified)
Resp: -0.847

Req: Form field: reported z-score of Cc1ccc(-c2nnc(OCCN3CCOCC3)c3ccccc23)cc1
Resp: -0.803

Req: Form field: reported z-score of Cc1ccc(C2C(C(=O)c3cc4ccccc4o3)=C(O)C(=O)N2CCN(C)C)o1 (stereo unspecified)
Resp: 2.05

Req: Form field: reported z-score of CCN(CC)CC#CCOC(=O)C(O)(c1ccccc1)C1CCCCC1 (stereo unspecified)
Resp: -0.591

Req: Form field: reported z-score of CNC(=O)Nc1cccc(NC(=O)NC)n1
Resp: 0.757

###

procedure_details: inhibitors of poly I:C-induced TLR3 signaling, primary screen, cell-based, poly I:C stimulus, luciferase, 10K MLSCN set (AID 602277)
measurement_context: HEK293-TLR3 RL24 IRF3 luciferase reporter, at 10 µM, stronger effect = higher value
inhibition of 30% or higher: fulfilled. Under 30%: not fulfilled.

Req: Please tell me: is the molecule COc1ccc(/C(O)=C2/C(=O)C(=O)N(CCCN(C)C)C2c2ccco2)cc1Cl (configuration not stated) at or over 30% in terms of inhibition?
Resp: not fulfilled

Req: Please tell me: is the molecule C[N+](C)(C)CCOP(=O)([O-])OC[C@H](O)CO at or over 30% in terms of inhibition?
Resp: not fulfilled

Req: Please tell me: is the molecule c1ccc2c(CC3=NCCN3)cccc2c1 at or over 30% in terms of inhibition?
Resp: fulfilled

Req: Please tell me: is the molecule CCCn1c(=O)[nH]c(=O)c2[nH]cnc21 at or over 30% in terms of inhibition?
Resp: fulfilled

Req: Please tell me: is the molecule COc1ccc(C2/C(=C(/O)c3cnn(-c4ccccc4)c3C)C(=O)C(=O)N2CCN(C)C)cc1OC (configuration not stated) at or over 30% in terms of inhibition?
Resp: not fulfilled

Req: Please tell me: is the molecule CCOC(=O)C1CSc2[nH]c(=O)sc2C1c1ccccc1 (configuration not stated) at or over 30% in terms of inhibition?
Resp: fulfilled

Req: Please tell me: is the molecule CCOC(=O)c1c(C(F)(F)C(F)(F)C(F)(F)C(F)(F)F)n[nH]c1C at or over 30% in terms of inhibition?
Resp: not fulfilled
